FYI, the data here is from PubChem BioAssay AID686978.

Assay: qHTS for Inhibitors of human tyrosyl-DNA phosphodiesterase 1 (TDP1): qHTS in cells in absence of CPT; further: nearly all actives have a fitted effect of over 55% in size
Conditions: DT40 Tdp1-/- hTDP1 cells, no CPT, ATP luminescence, 48 h
Procedure: Human tyrosyl-DNA phosphodiesterase 1 (TDP1) is a novel repair gene, and we propose to use it as a new target for anticancer drug development. […] For the primary screen, Tdp1-/-;hTDP1 cells will be exposed to small molecules in the presence or absence of CPT, and their growth kinetics will be evaluated after 48 hours by measuring ATP activity. […] The hit compounds will then be evaluated in the presence or absence of CPT using Tdp1-/- cells. […]
Screen size: about 420,000 compounds; about 64,000 (15%) were called active. About 27% were inconclusive and are not listed. The call rests on the fitted dose curve; in most records, active means well fitted inhibition curve with a large enough effect; inconclusive means small, poorly fitted or top-dose-only effect; inactive means flat fitted curve, though single readings scatter. Not all results are given here.
Outcome field: choose from active, inactive

Consider the following illustrative entries.
- COMPOUND: "CCc1cc2c(NC(Cc3ccccc3)C(=O)O)ncnc2s1 (centres undefined)"
  CAT: "inactive"
- COMPOUND: "O=c1c(-c2ccccc2Cl)c[nH]n1-c1ccccc1"
  CAT: "inactive"
- COMPOUND: "CN1CCN(C2Cc3ccc(Cl)cc3Sc3ccc(F)cc32)CC1 (centres undefined)"
  CAT: "active"
- COMPOUND: "Cc1nc(NNC(=O)c2ccccc2)cc(-c2ccccc2)n1"
  CAT: "inactive"
- COMPOUND: "O=c1c2c(-c3ccccc3)ccnc2[nH]n1-c1ccccc1"
  CAT: "inactive"
- COMPOUND: "COc1cccc(/C=N\\Nc2nncc(-c3ccccc3)n2)c1"
  CAT: "inactive"
- COMPOUND: "CN(C(=O)COC(=O)Cn1cnc2c1c(=O)n(C)c(=O)n2C)C1(C#N)CCCCC1"
  CAT: "inactive"
- COMPOUND: "O=C(O)c1ccccc1C(=O)Nc1nc(-c2ccccc2)cs1"
  CAT: "inactive"
- COMPOUND: "O=C1CCC(C(=O)N2CCC(O)(c3ccccc3)CC2)CN1CCc1ccccc1 (centres undefined)"
  CAT: "inactive"
- COMPOUND: "CS(=O)c1ccc(/C=C2\\C=Cc3ccccc32)cc1 (centres undefined)"
  CAT: "active"

What did this assay record as the result for O=C(Nc1ccccc1)Nc1nc2ccccc2s1 ? inactive

Fill in: this test's call for CN1CCN(S(=O)(=O)c2ccc3[nH]cc(C(=O)O)c(=O)c3c2)CC1 is ___ inactive

Which result was noted for this compound in the test: CC(=O)Nc1ccc(-c2csc(NC(=O)Nc3ccccc3)n2)cc1 active

----------
Test: qHTS for Inhibitors of human tyrosyl-DNA phosphodiesterase 1 (TDP1): qHTS in cells in absence of CPT; further: nearly all actives have a fitted effect of over 55% in size; further: potency means the concentration at half of the fitted maximal effect
Conditions: DT40 Tdp1-/- hTDP1 cells, no CPT, ATP luminescence, 48 h
The whole screen tested about 420,000 compounds, of which about 64,000 (15%) were called active. About 27% were inconclusive and are not listed. A selection follows.
MEASURED_ENDPOINT: Potency

Here is how some compounds turned out for Potency.
- COMPOUND: "Cc1ccc(S(=O)(=O)NCCC(=O)Nc2cccc(S(N)(=O)=O)c2)cc1C"
  Potency: "inactive"
- COMPOUND: "O=C(COC(=O)c1ncc(Cl)c(Cl)c1Cl)NC1CCS(=O)(=O)C1 (stereo unspecified)"
  Potency: "inactive"
- COMPOUND: "COc1ccccc1/C=C/C(=O)OCC(=O)NC1CCCCCC1"
  Potency: "inactive"
- COMPOUND: "COc1ccc(-c2nc3sc(CCNS(=O)(=O)c4ccc(F)c(C)c4)c(C)n3n2)cc1"
  Potency: "20.6 µM (active)"
- COMPOUND: "O=C(Cc1ccccc1)NNC1CC(=O)N(c2ccc(Br)cc2)C1=O (stereo unspecified)"
  Potency: "inactive"
- COMPOUND: "COc1cccc(-c2nnc(NC(=O)c3ccc(S(=O)(=O)N(CC(C)C)CC(C)C)cc3)o2)c1"
  Potency: "4.61 µM (active)"
- COMPOUND: "COc1ccc(-c2nc3sc(CCNC(=O)C(C)(C)C)c(C)n3n2)cc1"
  Potency: "23.1 µM (active)"
- COMPOUND: "COc1ccc(CNC(=O)Cn2nnc(-c3ccc(S(C)(=O)=O)cc3)n2)cc1"
  Potency: "inactive"

Reported Potency, compound Nc1nc(SCC(=O)N2CCN(S(=O)(=O)c3ccc(Cl)cc3)CC2)n[nH]1 : ____ inactive

I have this compound here, COc1cccc(C(=O)NNS(=O)(=O)c2ccc(F)cc2)c1 , and I need its recorded Potency. inactive

// query Potency value for entry Cc1cccc(C(=O)NNC(=O)c2cccc([N+](=O)[O-])c2)c1 inactive

Could you tell me which Potency is on file for O=C(COCc1cc(-c2ccc3c(c2)OCO3)on1)N1CCN(c2cccc(Cl)c2)CC1 ? inactive

Reported Potency for Cc1nn(-c2cc(Cl)ccc2N)c(=O)c2ccccc12 : what is it? inactive

What does the data say about its Potency? Entry: O=C(Nc1cc(=O)[nH]c2ncnn12)c1ccccc1Cl inactive

Bench note: what Potency did CC1Cc2ccccc2N1CC(=O)Nc1ccc2c(c1)OC(F)(F)O2 (stereo unspecified) show? inactive

For the compound COc1ccc(-c2nnc(NC(=O)CS(=O)(=O)c3ccc(Cl)cc3)o2)c(OC)c1 , what Potency is on record? inactive

// query Potency value for entry COc1ccc(OC)c(-n2c(=S)[nH]c3cc(C(=O)N4CCCCC4)ccc3c2=O)c1 inactive

# Potency lookup, item CN1C(=O)/C(=C\c2ccc(-c3ccccc3)o2)SC1=S inactive

----------
Assay: qHTS for Inhibitors of human tyrosyl-DNA phosphodiesterase 1 (TDP1): qHTS in cells in absence of CPT; further: nearly all actives have a fitted effect of over 55% in size
Conditions: DT40 Tdp1-/- hTDP1 cells, no CPT, ATP luminescence, 48 h
About 64,000 (15%) of roughly 420,000 compounds were called active. Another 27% or so got no clear call; they are omitted. Calls follow the shape of the dose curve; as a rule, active = well fitted inhibition curve with a large enough effect; inconclusive = small, poorly fitted or top-dose-only effect; inactive = flat fitted curve, though single readings scatter. A selection follows.
Assign a class; possible classes are active, inactive

# example entries with known answers
- COMPOUND: "CCOC(=O)c1cc2cc(-c3c(C(=O)OCC)oc4cc(O)cc(O)c4c3=O)ccc2o1"
  CAT: "active"
- COMPOUND: "CCOc1ccc(C2C(C(=O)O)c3ccccc3C(=O)N2CCN2CCOCC2)cc1 (stereo unspecified)"
  CAT: "inactive"

Outcome logged for COc1ccc(/C=N/Nc2cc(N3CCOCC3)nc(C)n2)c(OC)c1 in this assay: active

GET /call?item= COc1cccc(CCNC(=O)c2cccc(NC(=O)C3=C(C)OCCS3)c2)c1 returns the recorded outcome of this test. inactive

What classification did CC(=O)c1ccc(OCCN2CCOCC2)cc1 end up with in this test? inactive

So what was the verdict on CCOC(=O)c1cc2cc3ccccc3cc2oc1=O in this test? inactive

----------
Test: qHTS for Inhibitors of human tyrosyl-DNA phosphodiesterase 1 (TDP1): qHTS in cells in absence of CPT; further: nearly all actives have a fitted effect of over 55% in size
Settings: DT40 Tdp1-/- hTDP1 cells, no CPT, ATP luminescence, 48 h
The whole screen tested about 420,000 compounds, of which about 64,000 (15%) were called active. Not shown: some 27% with an inconclusive outcome. Calls follow the shape of the dose curve; as a rule, active = well fitted inhibition curve with a large enough effect; inconclusive = small, poorly fitted or top-dose-only effect; inactive = flat fitted curve, though single readings scatter. A selection follows.
Response enum: 1.0 = active, 0.0 = inactive

- MOLECULE: "Oc1cccc(CCc2ccccn2)c1"
  CAT: 0.0
- MOLECULE: "CCc1cc(=O)oc2cc(OCC(=O)N3CCCc4ccccc43)ccc12"
  CAT: 0.0
- MOLECULE: "CN1CCN(c2ccc(NC(=O)c3cc(Cl)c4c(c3)OCCO4)cc2)CC1"
  CAT: 1.0
- MOLECULE: "C[C@@H](NC(=O)c1nc[nH]c1C(=O)N1CCN(C(=O)OC(C)(C)C)CC1)c1ccccc1"
  CAT: 0.0
- MOLECULE: "Brc1cccc(-c2nnn3c2nc(NC2CCCCC2)c2ccccc23)c1"
  CAT: 0.0

Field: outcome | Entry: CCn1c(SCc2cccc(C(=O)O)c2)nnc1-c1ccc(Cl)cc1 0.0

Status in this test for CCCC(=O)Nc1ccc2oc(-c3ccc(O)c(Br)c3)nc2c1 ? 0.0

Name the outcome recorded for O=c1ccn([C@@H]2O[C@H](CNS(=O)(=O)c3cc4ccccc4s3)[C@@H](O)[C@H]2O)c(=O)[nH]1 in the assay. 0.0

I would be grateful if you could indicate the recorded call for C/C=C/C=C/C(=O)O . 0.0

How was O=C(c1cc2ccccc2s1)N1CCN(c2ccccn2)CC1 classified in this test? 0.0

So what was the verdict on O=C(CNC(=O)c1cccnc1)N/N=C/c1cccnc1 in this test? 0.0

Would you mind telling me which call this test gave Cc1cc(NC(=O)OC(C)C)ccc1-c1ccc(NC(=O)OC(C)C)cc1C ? 0.0

Tell me the assay call for CCc1nn(CC(=O)Nc2cc(C)cc(C)c2)c(=O)c2cc3sccc3n12 please. 1.0

Tell me the recorded outcome of this test for Cc1nc2ccccc2n1CC(=O)N/N=C/c1cccnc1 . 0.0

Field: outcome | Entry: CCc1nn(CC(=O)Nc2cccc(C)c2C)c(=O)c2cc3sccc3n12 0.0

For O=C(C(Cl)Cl)N1CCN(c2ccccn2)CC1 , which call appears in the assay record? 0.0

Answer briefly: the call reported for CC(C)C[C@H](NC(=O)NCCc1ccc(Cl)cc1)C(=O)O in this assay. 0.0

State the result this test recorded for COc1cccc(OC)c1C(=O)Nc1c(C(=O)N2CCN(c3ccccn3)CC2)oc2ccccc12 . 1.0

// param item: CCC(=O)Nc1c(C(=O)N2CCN(c3ccc(F)cc3)CC2)oc2ccccc12 ; yields the recorded call 1.0

Please let me know the test result on file for CCCOc1ccc(N2C(=O)CC(N(CCc3ccc(S(N)(=O)=O)cc3)C(C)=O)C2=O)cc1 (centres undefined) . 0.0

State the result this test recorded for Clc1ccc(-c2ncc3ccccn23)c(Cl)c1 . 0.0

Kindly provide the recorded test outcome for the following molecule: Cc1c(Br)c([N+](=O)[O-])nn1CC(=O)N1CCN(Cc2ccccc2)CC1 0.0

Hi, sorry to bother you, what did the test record for CCOc1ccc(NC(=O)Cn2c(C)ccc(C#N)c2=O)cc1 ? 0.0

Entry CCCCC(CC)C(=O)Nc1ccc(Cl)cn1 (centres undefined) : call = ? 0.0

Please let me know the test result on file for O=C(c1ccco1)N1CCN(C(=S)Nc2cc(F)cc(F)c2)CC1 . 0.0
